target: Cyclin-dependent kinase 5/CDK5 activator 1 (Homo sapiens) (UniProt Q00535+Q15078); details: at 1 µM
Sequence (Q00535 whole entry): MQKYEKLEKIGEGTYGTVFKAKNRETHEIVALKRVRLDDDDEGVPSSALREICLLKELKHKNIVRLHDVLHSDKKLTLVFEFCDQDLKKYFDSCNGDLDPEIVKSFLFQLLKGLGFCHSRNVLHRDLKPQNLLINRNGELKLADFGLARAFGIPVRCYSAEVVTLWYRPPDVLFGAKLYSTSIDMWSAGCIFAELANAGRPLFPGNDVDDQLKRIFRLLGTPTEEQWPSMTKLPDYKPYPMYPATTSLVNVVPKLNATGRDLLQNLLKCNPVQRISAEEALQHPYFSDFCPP
Sequence (Q15078 99-307 partner limits assumed): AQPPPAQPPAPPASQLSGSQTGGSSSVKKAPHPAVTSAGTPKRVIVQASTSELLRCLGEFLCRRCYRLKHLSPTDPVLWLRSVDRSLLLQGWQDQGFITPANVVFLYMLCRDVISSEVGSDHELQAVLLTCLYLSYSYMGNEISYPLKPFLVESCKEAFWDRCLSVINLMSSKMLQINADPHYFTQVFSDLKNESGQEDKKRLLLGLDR
Quick reference for residual activity among some compounds
Kindly provide the numeric value in % only, without the unit symbol.

                                   compound                                  testedon  attributemeasured  unitsymbol  number
0  Cn1cc(/C=C2\C(=O)Nc3ccc(S(N)(=O)=O)cc32)c2ccccc21  Cyclin-dependent kinase 5/CDK5 activator 1 (Homo sapiens) (UniProt Q00535+Q15078)  residual activity           %      33
1  Oc1ccc(-c2nc(-c3ccc(F)cc3)c(-c3ccncc3)[nH]2)cc1  Cyclin-dependent kinase 5/CDK5 activator 1 (Homo sapiens) (UniProt Q00535+Q15078)  residual activity           %     127
2      CN(C)c1ccc(/C=C2\C(=O)Nc3ccccc32)cc1  Cyclin-dependent kinase 5/CDK5 activator 1 (Homo sapiens) (UniProt Q00535+Q15078)  residual activity           %     102
3          Cn1nc2c3c(cccc31)C(=O)c1ccccc1-2  Cyclin-dependent kinase 5/CDK5 activator 1 (Homo sapiens) (UniProt Q00535+Q15078)  residual activity           %      97

[Q] Can you share its residual activity? I mean this compound: `Cn1cnc2cc3c(Nc4cccc(Br)c4)ncnc3cc21`
[A] 98

[Q] Can you share its residual activity? I mean this compound: O=C1Nc2ccccc2/C1=C1/Nc2ccccc2/C1=N\OCCC(O)CO (configuration not stated)
[A] 6

[Q] Can you share its residual activity? I mean this compound: `Cc1nc2cc3nc(-c4cccs4)cnc3cc2n1C`
[A] 106
